# Experimental Protocol: Protein binding in rat plasma
# Type: ADME, cell-free
# Condition Set: read-out: PPB (converted)
Endpoint Label: fraction unbound
Please respond with just the number, no unit label.

**Query** For the molecule CC(C)[C@@](O)(C(=O)N1CCC(C2CCN(c3ccc(C(=O)N(C)C)c(Cl)c3)CC2)CC1)C(F)(F)F , what fraction unbound is on record?
**Result** 0.018

====

# Experimental Protocol: Cmax in rhesus monkey at 20 mg/kg, po administered for 2 weeks
# Type: ADME, organism-based, Macaca mulatta
# Parameters: dose 20 mg/kg, route oral
# Condition Set: in vivo
Endpoint Label: Cmax (µM)
Numeric answer only, unit µM assumed.

**Query** For the compound CC(C)[C@@](O)(C(=O)N1CCC(C2CCN(c3ccc(C(=O)N(C)C)c(Cl)c3)CC2)CC1)C(F)(F)F , what Cmax is on record?
**Result** 18
